Below, each of the molecules is paired with its reported z-score value.
- Run Description: cell viability in Huh7 cells, primary screen, cytotoxicity control for HCV replication inhibitor project, CellTiter-Glo luminescence, basal, 48 h (AID 1143);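 also: Huh7 hepatoma cells carrying a hepatitis C replication reporter with no stimulus; test concentration not given here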
- Condition Info: Huh7 HCV replicon, higher = more signal, called active from +8 up or from −8 down
Measured Metric: z-score

1. COC1(C)CN(Cc2ccccc2Br)[C@H](/C=C/c2ccccc2)[C@H](Cc2ccccc2)O1 (some centres not stated)	-0.391
2. CCOc1cc(C(O)C2C=CC3C(=O)N(C)C(=O)C3N2N2CCCCC2)ccc1O (configuration not stated)	0.862
3. C=CCOC(=O)[C@@H]1[C@H]2C(=O)O[C@H](c3ccccc3)[C@H](c3ccccc3)N2[C@H](c2ccc(OCCOC(=O)[C@H]3C[C@H]4C(=O)N[C@@H](CC(C)C)C(=O)N4[C@H]3c3ccc(O)cc3)cc2)[C@@]12C(=O)Nc1ccc(I)cc12	-0.141
4. COc1cc2c(cc1OC)CN(C(=O)[C@H]1[C@@H]3C(=O)O[C@@H](c4ccccc4)[C@@H](c4ccccc4)N3[C@@H](c3ccc(OCCO)cc3)[C@]13C(=O)Nc1ccc(C#CC4(O)CCCCCC4)cc13)CC2	-0.425
5. CCCCN1CC=CC23O[C@@H]4C=CCOC(=O)[C@@H]4[C@H]2C(=O)N(C(C)CO)[C@@H]3C1=O (some centres not stated)	-0.251
6. CCCC[C@@H]1C[C@H]1[C@@H](NC(=O)c1cccnc1)c1ccc(-c2ccccc2)cc1	-2.72
7. Cc1ccc(S[C@]2(C(=O)O)CC(=O)N(Cc3ccccc3Cl)[C@@H]2c2ccc(CO)cc2)cc1	-1.55
8. C=CCN1C(=O)[C@@]2(O[C@@H](CCn3cc([C@H](O)c4ccccc4)nn3)[C@H]([Si](C)(C)c3ccc(OC)cc3)[C@H]2C)c2ccccc21	-3.85
9. O=C(CCCCCCC(=O)Nc1ccccc1)N/N=C/c1ccccc1	0.0796
10. CC1CC/C=C\[C@H]2OC34C=CCN(c5ccc6ccccc6c5)C(=O)[C@H]3N(C(CO)C(C)C)C(=O)[C@@H]4C2C(=O)O1 (some centres not stated)	-0.0047
11. Cc1ccc(C(C)CC(O)C2C=CC3C(=O)N(c4ccccc4)C(=O)C3N2Nc2ccc(C(C)C)cc2)o1 (configuration not stated)	0.183
12. COc1c(C)cc(-c2cc3c(c(-c4ccccc4)n2)[Si](C(C)C)(C(C)C)OC3)cc1C	0.109
13. O=C1NC(=O)C2C1C=CC(C(O)c1c(F)cccc1Cl)N2Nc1ccccn1 (configuration not stated)	0.63
14. CCCC[C@@H]1C[C@H]1[C@@H](NC(=O)c1ccccc1)c1ccc(Cl)cc1	-2.6
15. Cc1ccc(S[C@]2(C(=O)NCC(C)C)CC(=O)N(Cc3ccccc3Cl)[C@@H]2c2ccc(CO)cc2I)cc1	-0.521
16. COC(=O)Cn1c(C(=O)N2CCCC2)cc2c1C[C@H]1CN(C(=O)c3ccccc3)[C@@](Cc3ccc(F)cc3)(C(=O)OC)[C@@H]21	-1.83
17. COCCCNC(=O)[C@@]1(Sc2ccc(C)cc2)CC(=O)N(C2Cc3ccccc3C2)[C@@H]1c1ccc(CO)cc1I	-0.712

====

Below, each entry is listed with its recorded z-score.
- Run Description: modulators of S6 phosphorylation in cells, primary screen, cell-based, A549, cytoblot, luminescence, serum-stimulated (AID 1158);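 also: serum-stimulated A549 lung adenocarcinoma cells; signal is phosphorylated S6 detected by cytoblot immunostaining with HRP secondary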
- Condition Info: A549 phospho-S6 cytoblot, 5 h, higher = more signal
Measured Metric: z-score

1. CC(C)C(=C=CC[C@@H](O)c1ccccc1OCCO)C[C@@H](O)COCc1ccccc1	0.86
2. CC(C)(C)OC(=O)CC[C@]1(C(=O)O)N=C(c2ccc(OCCCO)cc2)O[C@H]1c1ccccc1	0.733
3. CC(C)(C)OC(=O)CC[C@]1(C(=O)N2CCOCC2)N=C(c2ccc(OCCCO)cc2)O[C@H]1c1ccccc1	-0.208
4. C#CCNC(=O)[C@H](Cc1ccccc1)NC(=O)[C@@H](N=[N+]=[N-])C(C)C	-0.52
5. CCOC(=O)C1=CC[C@@H](c2ccccc2)N(S(=O)(=O)c2ccc(C)cc2)C1	-0.506
6. COc1c(C)cc(-c2cc3c(c(Cc4ccccc4)n2)[Si](C(C)C)(C(C)C)OC3)cc1C	-0.671
7. O=C1NC(=O)C2C1C=CC(C(O)c1c(F)cccc1Cl)N2Nc1ccccn1 (centres undefined)	-1.1
8. O=C1C[C@]2(c3ccc([N+](=O)[O-])cc3)C(=O)N(Cc3ccccc3)c3cc(CO)ccc3[C@H]2N1CC12CC3CC(CC(C3)C1)C2	-0.218
9. CCOC(=O)C[C@H]1[C@H](OC(=O)c2ccc(-c3ccccc3)cc2)[C@@H](NC(=O)c2ccc3ccccc3c2)c2cc(OCCCO)ccc2N1C(=O)c1ccc2ccccc2n1	0.762
10. CC(C)C(CO)N1C(=O)[C@]2(C)C3C(=O)OCCC/C=C\[C@H]3OC23C=CCN(c2ccc(Cl)cc2)C(=O)[C@@H]13 (some centres undefined)	-0.197
11. COc1ccc([Si](C)(C)[C@H]2[C@H](CCn3cc([C@H](O)c4ccccc4)nn3)O[C@@]3(C(=O)N(Cc4ccc(N5CCC5=O)cc4)c4ccccc43)[C@@H]2C)cc1	0.436
12. CCOC(=O)C1=CC[C@@H](c2cc(Cl)ccc2Cl)N(S(=O)(=O)c2ccc(C)cc2)[C@H]1c1ccc(OC)cc1	-0.371
13. COC(=O)c1c(CC[C@@H](CO)NC(=O)N[C@H](Cn2cc(-c3ccccc3C)nn2)C(C)C)oc(C(C)=O)c1C(=O)OC	1.29
14. Cc1ccc(S[C@]2(C(=O)NCCN3CCOCC3)CC(=O)N(Cc3ccccc3C(F)(F)F)[C@@H]2c2ccc(CO)cc2I)cc1	0.155

====

- Run Description: binders of probe aFGF10 on microarray, primary screen, stem cell growth factor project, biochemical, small-molecule microarray, fluorescence 635/667 (AID 1071);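 also: score merges 667 nm spot intensity and signal to noise from triplicate slides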
- Condition Info: higher = more signal
Please note: 1 applies when composite z-score is 0.4 or greater, and 0 applies otherwise.

1) CC(C)CCC[C@@H](C)[C@H]1CC[C@@]2(C)C3=C(CC[C@]12C)[C@@]1(C)CC[C@H](OC(=O)c2ccc(Br)cc2)C(C)(C)C1CC3 (stereo partly specified)	1
2) C=CC1c2cc(O)c(OC)cc2CCN1Cc1sc2ccccc2c1Cl (stereo unspecified)	1
3) CC(C)(C)N1CC=CC23O[C@@H]4C=CCOC(=O)[C@@H]4[C@H]2C(=O)N(CCCO)[C@@H]3C1=O (stereo partly specified)	0
4) C[C@]1(C(=O)NC2CC2)c2ccccc2C(=O)N(Cc2ccc(OC(F)(F)F)cc2)[C@H]1c1ccc(CO)cc1	0
5) COc1ccccc1CN1C(=O)c2ccccc2[C@@H](C(=O)NC(C)C)[C@@H]1c1ccc(CO)cc1	1
6) CN1C2C=C(CCCO)C(C3C(=O)N(C(N)=O)C(=O)C32)C1c1cccs1 (stereo unspecified)	0

====

- Tgt: Pro-neuregulin-1, membrane-bound isoform (Homo sapiens) (UniProt Q02297)
- Sequence (Q02297 whole entry, looked up, canonical isoform): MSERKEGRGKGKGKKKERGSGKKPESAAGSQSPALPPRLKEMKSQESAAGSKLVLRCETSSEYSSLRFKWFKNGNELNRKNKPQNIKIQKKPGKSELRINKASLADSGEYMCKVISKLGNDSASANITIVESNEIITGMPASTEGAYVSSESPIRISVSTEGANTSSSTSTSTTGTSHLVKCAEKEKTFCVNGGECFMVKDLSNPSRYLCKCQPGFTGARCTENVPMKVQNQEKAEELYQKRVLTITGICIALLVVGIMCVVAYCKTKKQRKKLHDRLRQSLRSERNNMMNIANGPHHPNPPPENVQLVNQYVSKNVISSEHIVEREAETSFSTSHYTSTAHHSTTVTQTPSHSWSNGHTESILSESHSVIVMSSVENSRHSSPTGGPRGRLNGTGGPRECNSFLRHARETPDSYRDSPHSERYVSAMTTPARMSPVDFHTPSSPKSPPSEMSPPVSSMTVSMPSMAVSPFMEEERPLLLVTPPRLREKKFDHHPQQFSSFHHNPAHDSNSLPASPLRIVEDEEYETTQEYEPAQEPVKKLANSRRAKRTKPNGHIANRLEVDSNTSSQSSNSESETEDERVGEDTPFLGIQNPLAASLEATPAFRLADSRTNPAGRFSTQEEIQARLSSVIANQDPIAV
- Run Description: NRG1 binders on small-molecule microarrays, primary screen, psychiatric disease protein project, biochemical, small-molecule microarray, fluorescence 635/667 (AID 1075);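 also: score combines 667 nm spot fluorescence with signal to noise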
- Condition Info: NRG1 binding, 635 nm fluorescence, higher = more signal
Measured Metric: composite z-score

1. [N-]=[N+]=NCc1ccccc1C[C@]1(C(=O)NCC(O)CO)N=C(c2ccc(OCCCO)cc2)O[C@H]1c1ccccc1CN=[N+]=[N-] (stereo not given in full)	1.34
2. C[C@H]1C2=C3C(CC[C@H]4C(OCc5ccc(F)cc5C(F)(F)F)OC[C@](C)([C@@H]34)N(C(=O)OC(C)(C)C)C2)C(CO)C1CO (stereo not given in full)	1.76
3. C[C@H]1ON(c2ccc(C(=O)OC(C)(C)C)cc2)[C@@H](c2ccc(O)cc2)[C@@H]1C(=O)N1C(=O)OC[C@@H]1c1ccccc1	0.464
4. CC(C)N1CC=CC23O[C@@H]4C=CCCOC(=O)C4[C@H]2C(=O)N(CCO)[C@@H]3C1=O (stereo not given in full)	-0.637
5. C=CC[C@@H](OC(=O)Nc1ccc(OC)cc1)c1ccc(OCCO)cc1	-0.682
6. O=C(O)[C@]1(Cc2ccccc2)N=C(c2ccc(OCCCO)cc2)O[C@@H]1c1ccccc1	1.45
7. CCOC(=O)C[C@H]1[C@H](OC(=O)Cc2ccc3c(c2)OCO3)[C@@H](NC(=O)C2CCCCC2)c2cc(OCCCO)ccc2N1C(=O)c1ccc2ccccc2n1	0.196
8. COc1ccccc1CN1C(=O)c2ccccc2[C@@H](C(=O)NC(C)C)[C@@H]1c1ccc(CO)cc1	1.13
9. CN1C(=O)C2C=CC(C(O)Cc3ccccc3)N(N(c3ccccc3)c3ccccc3)C2C1=O (stereo not given)	0.503
10. COC(=O)[C@@]1(Cc2ccccc2)[C@H]2c3cc(C(=O)N4CCCC4)[nH]c3C[C@H]2CN1C(=O)c1ccccc1	1.29
11. CC(C)C(O)C1C=CC2C(=O)N(C)C(=O)C2N1N(c1ccccc1)c1ccccc1 (stereo not given)	0.371
12. CN(C)CCCN1C(=O)[C@@]2(c3ccc([N+](=O)[O-])cc3)CC(=O)N(CC34CC5CC(CC(C5)C3)C4)[C@@H]2c2ccc(CO)cc21	0.742
13. CC(C)C[C@@H]1NC(=O)[C@H]2C[C@@H](C(=O)NCCCCCC[N+](C)(C)C)[C@@H](c3cccc(OCCO)c3)N2C1=O	-0.0252
14. C=CC[C@]1(C(=O)N(C)C)N=C(c2ccc(OCCCO)cc2)O[C@H]1c1ccccc1N=[N+]=[N-]	1.3
15. COCCOC(=O)N1C(=O)[C@@]2(c3cc(C#CC4(O)CCCCCC4)ccc31)[C@H](C(N)=O)[C@H]1C(=O)O[C@H](c3ccccc3)[C@H](c3ccccc3)N1[C@@H]2c1ccccc1OCCO	0.735
